In this section, each of the compounds is paired with its reported MTD.
assay: Acute toxicity in sc dosed C57BL/6 mouse assessed as maximum tolerated dose by measuring mortality; format: organism-based; conditions: in vivo
Express it in mg/kg; write the number only.

Study these solved cases before continuing.
Cc1cc(NC2CCN(C(=O)CCNCP(=O)(O)O)CC2)nc(NCc2cn(CCCNCCCNC3CCCCC3)nn2)n1 :: 100
Cc1cc(N(C)C2CCN(C(=O)CCNCC(=O)O)CC2)nc(NCc2cn(CCCNCCCNC3CCCCC3)nn2)n1 :: 50
CCc1cc(NC2CCN(C(=O)CCNCC(=O)O)CC2)nc(NCc2cn(CCCNCCCNC3CCCCC3)nn2)n1 :: 50
CCCN1CCC(Nc2cc(C)nc(NCc3cn(CCCNCCCNC4CCCCC4)nn3)n2)CC1 :: 10
O=C(O)CNCCC(=O)N1CCC(Nc2ccnc(NCc3cn(CCCNCCCNC4CCCCC4)nn3)n2)CC1 :: 100
Cc1cc(NC2CCN(C(=O)CCNCCC(=O)O)CC2)nc(NCc2cn(CCCNCCCNC3CCCCC3)nn2)n1 :: 50

Q. GET /values?readout=MTD&item= Cc1cc(NC2CCN(C(=O)CCCC(=O)O)CC2)nc(NCc2cn(CCCNCCCNC3CCCCC3)nn2)n1
A. 50

Q. GET /values?readout=MTD&item= CCc1cc(NC2CCNCC2)nc(NCc2cn(CCCNCCCNC3CCCCC3)nn2)n1
A. 10

Q. GET /values?readout=MTD&item= Cc1cc(NC2CCN(CCCCC(=O)O)CC2)nc(NCc2cn(CCCNCCCNC3CCCCC3)nn2)n1
A. 75
